In this section, each of the binders is paired with its reported RAMPO Score.
- tgt: T1, His-tagged P3028 (human, also: His-tag, terminus and sequence not given here)
- T1 construct: in solution at 0.5 ug/mL over the peptide cards; found with anti-His-tag antibody and rabbit anti-mouse peroxidase (rampo); also called PGE73; not shown: His-tag
- T1 peptide: VFDEFKPLVEEPQNLIK
- assay_protocol: PEPSCAN chip ELISA, His-P3028 in solution;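 note: score is the raw OD at 405 nm from peroxidase colour with ABTS, imaged by CCD camera before and after staining, with wells showing air bubbles set to zero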
No end group written: not given here.
readout: RAMPO Score

binder	readout	result
KELDTFFVKLSLFTER [SEQ ID NO 441]	RAMPO Score	349 rampo score
KKLDTFFVKLMLFTER [SEQ ID NO 16]	RAMPO Score	744 rampo score
KKLDTFFVKLILFTER [SEQ ID NO 505]	RAMPO Score	289 rampo score
KKLDTFFRKLSLFTER [SEQ ID NO 330]	RAMPO Score	365 rampo score

Reference source: patent US20170298096A1
